target_or_system: Genome polyprotein (Poliovirus type 1 (strain Mahoney)) (UniProt P03300)
Sequence (P03300 1749-2209 limits assumed): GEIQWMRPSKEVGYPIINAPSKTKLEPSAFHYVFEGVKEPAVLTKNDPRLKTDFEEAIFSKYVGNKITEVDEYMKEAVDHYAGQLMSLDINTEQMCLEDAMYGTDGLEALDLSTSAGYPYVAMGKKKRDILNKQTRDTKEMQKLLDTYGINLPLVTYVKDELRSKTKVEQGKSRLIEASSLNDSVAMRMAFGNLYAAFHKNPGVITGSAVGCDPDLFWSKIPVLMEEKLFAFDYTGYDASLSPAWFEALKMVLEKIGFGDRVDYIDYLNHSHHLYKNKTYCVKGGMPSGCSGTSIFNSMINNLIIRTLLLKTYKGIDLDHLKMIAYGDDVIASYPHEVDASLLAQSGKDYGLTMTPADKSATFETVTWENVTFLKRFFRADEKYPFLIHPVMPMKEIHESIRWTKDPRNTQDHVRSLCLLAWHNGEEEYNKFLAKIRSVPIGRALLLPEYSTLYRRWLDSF
assay_comment: poliovirus RdRp elongation inhibitors, primary screen, biochemical, fluorescence polarization, total intensity (AID 588519); note: compound at 16.7 µg/mL
protocol_conditions: poliovirus polymerase elongation, measured here: FP z-score, stronger effect = lower value
The whole screen tested about 150,000 compounds, of which about 1,000 (0.67%) were called active. Many of the other results were omitted from the sample, so actives are more common in it than they were.
Binary call on z-score with cut-off -0.5: strictly below means TRUE, and equality or higher means FALSE.

{"columns": ["compound", "class_assignment"],
 "data": [
  ["COc1cc(C=Nc2c(C)n(C)n(-c3ccccc3)c2=O)ccc1OC(=O)c1ccco1", "FALSE"],
  ["CC(=O)Nc1ccccc1NC(=O)CN(C)S(=O)(=O)c1ccccc1", "FALSE"],
  ["CNC(=O)c1sc(NCc2ccccc2OC)nc1C", "TRUE"],
  ["CCOC(=O)c1sc(NC(=O)/C=C/c2ccc(C(C)C)cc2)c(C(=O)OCC)c1C", "FALSE"],
  ["O=C(CN1CCN(S(=O)(=O)c2ccc3[nH]c(=O)[nH]c3c2)CC1)N1CCCCCC1", "TRUE"],
  ["COc1ccc(CN2CNc3c(c(C)nn3-c3ccccc3)C2)cc1", "TRUE"],
  ["COc1ccc(-c2noc(CC(=O)N(C)c3ccccc3)n2)cc1", "FALSE"],
  ["O=C(CSc1nnc(-c2c[nH]c3ccccc23)o1)NCC1CN(Cc2ccccc2)CCO1 (stereo not drawn)", "FALSE"],
  ["CSc1ccc(/C=N/NC(N)=S)cc1", "TRUE"],
  ["CC(NC(=O)C1CCCN1C(=O)c1cccs1)c1ccc(-n2ccnc2)cc1 (stereo not drawn)", "FALSE"],
  ["Cc1ccc(NC2=C/C(=N/S(=O)(=O)c3ccc(F)cc3)c3ccccc3C2=O)cc1C", "FALSE"],
  ["Cc1ccc(N2C(=O)NC(=O)/C(=C\\c3ccco3)C2=O)c(C)c1", "FALSE"],
  ["COc1ccccc1CNCc1ccc(C(=O)O)s1", "FALSE"],
  ["NC(=O)C1CCN(C(=S)Nc2ccccc2)CC1", "FALSE"],
  ["CCOc1ccc(OCC(=O)OC(C)C(=O)Nc2ncc(Cl)cc2Cl)cc1 (stereo not drawn)", "FALSE"],
  ["CC(C)OC(=O)Nc1ccccc1", "FALSE"],
  ["Cc1ccc(S(=O)(=O)c2no[n+]([O-])c2S(=O)(=O)c2ccc(C)cc2)cc1", "TRUE"]
]}
